biological target: porcine hexameric Zn2+-insulin (Sus scrofa); construct: mature two-chain disulfide-linked insulin, cut from (pre)proinsulin; Zn2+ hexamer (two Zn per hexamer), T6 start state; test: UV-visible 4H3N chromophore titration, Hill fit; conditions: read-out: Kd ± S.D.
Sequence (P01315 25-54): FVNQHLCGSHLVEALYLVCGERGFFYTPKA
Sequence (P01315 88-108): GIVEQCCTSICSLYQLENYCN
Provide the reported Kd of each item.

Requested read-out Kd, target or system porcine hexameric Zn2+-insulin (Sus scrofa), entry "Oc1ccccc1" 0.86 mM

Requested read-out Kd, target or system porcine hexameric Zn2+-insulin (Sus scrofa), entry "NCCc1c[nH]c2ccc(O)cc12" 3.34 mM
